Molecular target: 5-HT2A receptor (Homo sapiens (Human), UniProt P28223)
Experiment: 5-HT2A receptor radioligand binding ([3H]ketanserin)
Settings: 1 nM [3H]ketanserin, HEK293 stable cell line
measured quantity: Ki (nM)

>>> print(df.to_string())
                        smiles  measured_quantity  numeric_value
0  COc1cc(C(F)(F)F)c(OC)cc1CCN                 Ki           15.8
1      C=CCc1cc(OC)c(CCN)cc1OC                 Ki           90.4
2        CCc1cc(OC)c(CCN)cc1OC                 Ki           16.7

----------
Molecular target: 5-HT2B receptor (Homo sapiens (Human))
Sequence (P41595 whole entry): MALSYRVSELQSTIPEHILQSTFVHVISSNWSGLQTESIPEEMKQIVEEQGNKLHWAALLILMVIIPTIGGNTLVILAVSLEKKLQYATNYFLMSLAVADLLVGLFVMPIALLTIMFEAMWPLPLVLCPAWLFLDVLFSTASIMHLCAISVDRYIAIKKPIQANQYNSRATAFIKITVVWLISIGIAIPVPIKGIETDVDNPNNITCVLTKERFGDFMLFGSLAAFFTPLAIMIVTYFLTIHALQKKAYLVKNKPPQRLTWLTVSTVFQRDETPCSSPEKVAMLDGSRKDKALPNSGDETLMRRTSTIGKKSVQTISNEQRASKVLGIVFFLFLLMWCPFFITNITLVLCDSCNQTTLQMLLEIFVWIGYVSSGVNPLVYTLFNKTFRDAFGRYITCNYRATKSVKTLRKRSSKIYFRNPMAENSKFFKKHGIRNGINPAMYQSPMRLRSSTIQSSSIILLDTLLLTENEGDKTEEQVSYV
Assay: FLIPR Ca2+ flux agonist assay at 5-HT2B
Assay type: cell-based
measured quantity: EC50 (nM)

In [3]: df
Out[3]:
                               molecule  numeric_value
0  C=CCc1cc(OC)c(CCN)cc1OC [Compound 1]           77.7

----------
Target: UniProtKB P28223
Test: FLIPR Ca2+ flux agonist assay at 5-HT2A
Assay type: cell-based
measured quantity: EC50 (nM)

                               compound  scale_unit  numeric_value
0  C=CCc1cc(OC)c(CCN)cc1OC [Compound 1]          nM           2.15
